FYI, the data here is from patent US10174032B2.

TARGET_SYSTEM: PI3K-alpha (Homo sapiens)
ASSAY_METHOD_TEXT: Kinase inhibition assay, P-33 labelled ATP phosphate transfer, PI3K-alpha
Assay type: biochemical
METRIC: IC50 (µM)
// return numeric value only (unit: µM, not printed)

-- ask Read off the recorded IC50 for O=c1nc(N2CCOCC2)oc2c(-c3ccccc3)csc12 [Compound 3]
-- reply 1.4

###

TARGET_SYSTEM: PI3K-alpha (Homo sapiens, UniProt P42336)
Sequence (P42336 whole entry, species assumed): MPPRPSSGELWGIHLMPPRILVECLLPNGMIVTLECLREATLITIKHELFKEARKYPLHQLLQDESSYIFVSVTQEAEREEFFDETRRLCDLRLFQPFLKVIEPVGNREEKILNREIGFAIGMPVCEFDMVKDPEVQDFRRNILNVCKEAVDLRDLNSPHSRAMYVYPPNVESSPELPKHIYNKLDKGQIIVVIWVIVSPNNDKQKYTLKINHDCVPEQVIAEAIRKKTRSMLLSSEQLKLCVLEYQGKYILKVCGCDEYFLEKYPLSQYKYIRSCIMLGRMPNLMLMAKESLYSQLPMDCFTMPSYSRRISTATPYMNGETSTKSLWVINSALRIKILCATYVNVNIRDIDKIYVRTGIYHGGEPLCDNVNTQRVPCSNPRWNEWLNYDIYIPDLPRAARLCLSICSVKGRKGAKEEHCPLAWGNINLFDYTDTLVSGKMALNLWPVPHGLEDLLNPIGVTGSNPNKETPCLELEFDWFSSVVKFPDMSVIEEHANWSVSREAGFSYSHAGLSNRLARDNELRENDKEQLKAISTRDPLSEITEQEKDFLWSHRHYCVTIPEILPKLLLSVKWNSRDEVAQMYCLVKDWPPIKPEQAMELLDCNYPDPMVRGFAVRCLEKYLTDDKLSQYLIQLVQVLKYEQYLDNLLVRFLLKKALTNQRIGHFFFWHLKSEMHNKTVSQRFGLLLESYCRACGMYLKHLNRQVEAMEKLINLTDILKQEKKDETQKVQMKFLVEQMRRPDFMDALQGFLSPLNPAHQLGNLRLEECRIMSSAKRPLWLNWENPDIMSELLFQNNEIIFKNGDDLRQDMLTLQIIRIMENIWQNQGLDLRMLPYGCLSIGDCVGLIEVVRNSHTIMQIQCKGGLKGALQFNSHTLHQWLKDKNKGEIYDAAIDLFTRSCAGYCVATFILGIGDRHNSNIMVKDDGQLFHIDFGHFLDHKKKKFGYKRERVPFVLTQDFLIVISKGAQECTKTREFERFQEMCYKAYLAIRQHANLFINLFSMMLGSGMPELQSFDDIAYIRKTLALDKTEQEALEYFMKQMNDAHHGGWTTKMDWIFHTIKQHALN
Sequence (P27986 whole entry partner, species assumed): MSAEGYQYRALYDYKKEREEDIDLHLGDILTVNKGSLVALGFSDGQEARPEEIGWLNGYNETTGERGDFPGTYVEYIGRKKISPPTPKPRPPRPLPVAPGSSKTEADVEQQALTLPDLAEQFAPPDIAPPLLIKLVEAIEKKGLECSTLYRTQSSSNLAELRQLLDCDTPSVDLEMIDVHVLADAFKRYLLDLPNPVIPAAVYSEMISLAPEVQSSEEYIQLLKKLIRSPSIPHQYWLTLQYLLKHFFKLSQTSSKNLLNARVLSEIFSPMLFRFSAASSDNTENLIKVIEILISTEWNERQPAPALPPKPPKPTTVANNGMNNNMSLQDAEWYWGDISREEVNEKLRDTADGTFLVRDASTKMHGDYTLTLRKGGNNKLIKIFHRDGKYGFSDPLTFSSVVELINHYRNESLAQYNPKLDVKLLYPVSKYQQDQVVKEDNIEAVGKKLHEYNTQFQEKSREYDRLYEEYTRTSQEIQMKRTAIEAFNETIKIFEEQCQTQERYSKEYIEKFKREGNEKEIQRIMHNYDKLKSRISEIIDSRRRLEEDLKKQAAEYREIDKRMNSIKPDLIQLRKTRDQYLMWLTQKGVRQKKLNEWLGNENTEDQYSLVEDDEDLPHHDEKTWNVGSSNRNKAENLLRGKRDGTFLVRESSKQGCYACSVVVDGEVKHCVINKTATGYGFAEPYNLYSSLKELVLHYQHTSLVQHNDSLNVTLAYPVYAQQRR
ASSAY_METHOD_TEXT: Kinase inhibition assay, P-33 labelled ATP phosphate transfer, PI3K-alpha
Assay type: biochemical
APPLIED_CONDITIONS: read-out: PI3K-alpha (% Inh at 300 nM)
inhibition at 0.3 µM by entry:
// return numeric value only (unit: %, not printed)

Answered examples (2):
Cc1ccc(-n2c(C)nc3c(=O)nc(N4CCOCC4)[nH]c32)cc1 [Compound 32] : 0
O=c1nc(N2CCOCC2)[nH]c2c1cnn2CCO [Compound 26] : 9

// switching to the query compound
-- ask Read off the recorded inhibition at 0.3 µM for Cc1nc2c(=O)nc(N3CCOCC3)[nH]c2n1Cc1ccccc1 [Compound 29]
-- reply 7
